test: molar heat capacity at saturation pressure; details: 296.65 K; Liquid
Hi, to clarify the labels: Criterion met covers molar heat capacity from 200 J/K/mol upward, Criterion not met covers anything below 200 J/K/mol.

>>> cat("ClCCCCCCl")
"Criterion met"
>>> cat("ClCCCCCCCl")
"Criterion met"
>>> cat("ClCCCCCl")
"Criterion not met"
>>> cat("ClCCCCl")
"Criterion not met"
>>> cat("ClCCCl")
"Criterion not met"

###

assay: molar heat capacity at saturation pressure; details: 291.66 K; Liquid
# if measured molar heat capacity < 200 J/K/mol: 1  # else: -1

>>> cat("ClCCCCCCCl [1,6-dichlorohexane]")
-1
>>> cat("ClCCCCCCl [1,5-dichloropentane]")
-1
>>> cat("ClCCCCl [1,3-dichloropropane]")
1
>>> cat("ClCCCCCl [1,4-dichlorobutane]")
1
>>> cat("ClCCCl [1,2-dichloroethane]")
1

###

assay: molar heat capacity at saturation pressure; details: 319.16 K; Liquid
# if measured molar heat capacity < 200 J/K/mol: label 1  # else: label 0

>>> cat("ClCCCCl")
"label 1"
>>> cat("ClCCCl")
"label 1"
>>> cat("ClCCCCCl")
"label 1"
>>> cat("ClCCCCCCCl")
"label 0"
>>> cat("ClCCCCCCl")
"label 0"

###

The reader will find reported molar heat capacity values listed item by item below.
assay: molar heat capacity at saturation pressure; settings: 329.15 K; Liquid
endpointName: molar heat capacity (J/K/mol)

>>> measuredvalue("ClCCCCCl")
190.01
>>> measuredvalue("ClCCCCCCCl")
249.58
>>> measuredvalue("ClCCCl")
131.87
>>> measuredvalue("ClCCCCl")
162.11
>>> measuredvalue("ClCCCCCCl")
220.61

###

The reader will find reported molar heat capacity values listed item by item below.
experiment: molar heat capacity at saturation pressure; conditions: 284.16 K; Liquid
endpointName: molar heat capacity (J/K/mol)

>>> measuredvalue("ClCCCCCl")
181.25
>>> measuredvalue("ClCCCCCCl")
209.5
>>> measuredvalue("ClCCCCl")
154.94
>>> measuredvalue("ClCCCl")
128.02
>>> measuredvalue("ClCCCCCCCl")
236.57

###

The reader will find reported molar heat capacity values listed item by item below.
assay: molar heat capacity at saturation pressure; conditions: 344.16 K; Liquid
Numbers after ± are expanded uncertainties.
endpointName: molar heat capacity

>>> measuredvalue("ClCCCl [1,2-dichloroethane]")
"133.32 ± 1 J/K/mol"
>>> measuredvalue("ClCCCCCCCl [1,6-dichlorohexane]")
"254.49 ± 2 J/K/mol"
>>> measuredvalue("ClCCCCCCl [1,5-dichloropentane]")
"224.7 ± 1.7 J/K/mol"
>>> measuredvalue("ClCCCCCl [1,4-dichlorobutane]")
"193.05 ± 1.5 J/K/mol"
>>> measuredvalue("ClCCCCl [1,3-dichloropropane]")
"164.44 ± 1.3 J/K/mol"

###

experiment: molar heat capacity at saturation pressure; details: 309.15 K; Liquid
Hi, to clarify the labels: Met covers molar heat capacity from 200 J/K/mol upward, Not met covers anything below 200 J/K/mol.

>>> cat("ClCCCCCCl [1,5-dichloropentane]")
"Met"
>>> cat("ClCCCCCCCl [1,6-dichlorohexane]")
"Met"
>>> cat("ClCCCl [1,2-dichloroethane]")
"Not met"
>>> cat("ClCCCCCl [1,4-dichlorobutane]")
"Not met"
>>> cat("ClCCCCl [1,3-dichloropropane]")
"Not met"
